Assay: Plasma pharmacokinetics of SHR9146 in mice (LC-MS/MS, non-compartmental analysis)
Format: in vivo, ICR mice
Settings: both sexes, ICR, mouse, plasma, po, 40 mg/kg, 40 mg/kg i.g. single dose; all mice (Totol, 3 male + 3 female); plasma; read-out: AUC0-t
assayMetric: AUC(0-t) (ng·h/mL)
Field format: number, assumed ng·h/mL, no unit text.

[ask] Recorded AUC(0-t) of OCCn1cc(-c2ccc(N3CCC([C@H]4c5c(F)cccc5-c5cncn54)CC3)cc2)cn1 , please.
[reply] 21700

---

Test: Tissue distribution of SHR9146 in mice after oral gavage of 40 mg/kg
Format: in vivo, ICR mice
Settings: female, ICR, mouse, pancreas, po, 40 mg/kg, female, 3 h, 40 mg/kg oral gavage, Mean (n=3); read-out: SHR9146 concentration in Pancreas
assayMetric: concentration at 3 h
Enter the number, and then the unit.

[ask] Recorded concentration at 3 h of OCCn1cc(-c2ccc(N3CCC([C@H]4c5c(F)cccc5-c5cncn54)CC3)cc2)cn1 , please.
[reply] 12500 ng/g

---

Assay: Plasma pharmacokinetics of SHR9146 in mice (LC-MS/MS, non-compartmental analysis)
Format: in vivo, ICR mice
Conditions: both sexes, ICR, mouse, plasma, oral, 40 mg/kg, 40 mg/kg i.g. single; 24 h; read-out: plasma drug concentration, individual mice #1-#6
Protocol: ICR mice with body weight 16–26 g were supplied by Shanghai Lingchang Biotechnology Co., Ltd. (animal breeding license number SCXK (Shanghai) 2013-0018) and housed at Shanghai Institute of Materia Medica, Chinese Academy of Sciences [animal use license number SYXK (Shanghai) 2015-0027]. The mice used in this study were fasted overnight for 12 h but had free access to water. Food was supplied 4 h post-dose. […]
assayMetric: concentration at 24 h (ng/mL)
Field format: number, assumed ng/mL, no unit text.

[ask] Recorded concentration at 24 h of OCCn1cc(-c2ccc(N3CCC([C@H]4c5c(F)cccc5-c5cncn54)CC3)cc2)cn1 , please.
[reply] 136

---

Assay: Plasma pharmacokinetics of SHR9146 in mice (LC-MS/MS, non-compartmental analysis)
Assay type: in vivo, ICR mice
Settings: ICR, mouse, po; 40 mg/kg i.g. single dose; male mice; plasma; read-out: MRT0-∞
assayMetric: MRT inf (h)
Field format: number, assumed h, no unit text.

[ask] Recorded MRT inf of OCCn1cc(-c2ccc(N3CCC([C@H]4c5c(F)cccc5-c5cncn54)CC3)cc2)cn1 , please.
[reply] 2.56

---

Test: Plasma pharmacokinetics of SHR9146 in mice (LC-MS/MS, non-compartmental analysis)
Assay type: in vivo, ICR mice
Settings: both sexes, ICR, mouse, plasma, oral, 40 mg/kg, 40 mg/kg i.g. single; 0.5 h; read-out: plasma drug concentration, mean (n=6)
assayMetric: concentration at 0.5 h (µg/mL)
Field format: number, assumed µg/mL, no unit text.

[ask] Recorded concentration at 0.5 h of OCCn1cc(-c2ccc(N3CCC([C@H]4c5c(F)cccc5-c5cncn54)CC3)cc2)cn1 , please.
[reply] 5.31

---

Experiment: Plasma pharmacokinetics of SHR9146 in mice (LC-MS/MS, non-compartmental analysis)
Assay type: in vivo, ICR mice
Conditions: female, ICR, mouse, plasma, iv, 5 mg/kg, 5 mg/kg i.v. single dose; female mice; plasma; read-out: t1/2 (converted)
assayMetric: half-life (min)
Field format: number, assumed min, no unit text.

[ask] Recorded half-life of OCCn1cc(-c2ccc(N3CCC([C@H]4c5c(F)cccc5-c5cncn54)CC3)cc2)cn1 , please.
[reply] 39.9
